The measured values listed here are drawn from the supplement of paper PMC10646978.

Measured IRF reporter, listed per entry for reference.
# Tested on: RAW-Dual (murine macrophage reporter line)
# TEST PROTOCOL: IRF reporter (Lucia luciferase) activity fold change vs agonist alone; higher = enhanced IRF activity
# EXPERIMENTAL SETUP: modulator concentration 10 µM; agonist: 3'3'-cGAMP 10 ug/mL
READOUT: IRF reporter

>>> experimental_value("CCOc1ccccc1NC(=O)NCc1sc(-c2ccccc2Cl)nc1C")
0.89
>>> experimental_value("Cc1cccc(-c2cc3nc(C)c(Cl)c(O)n3n2)c1")
1.04
>>> experimental_value("Cn1nccc1-c1ccc(CNC(=O)c2cc(Br)cs2)cn1")
1.03
>>> experimental_value("CCOCC(=O)Nc1ccc(N2CCCCC2=O)c(C)c1")
0.899
>>> experimental_value("Nc1ccc(O)c(C(=O)O)c1")
0.956
>>> experimental_value("COc1ccc(CCNc2nnc(Cc3ccc(Cl)cc3)c(=O)[nH]2)cc1OC")
0.977
>>> experimental_value("CCN(CC)C(=O)N1CCN(C)CC1.O=C(O)CC(O)(CC(=O)O)C(=O)O")
0.895
>>> experimental_value("CN1C(=O)C(=Cc2cccc3ccccc23)SC1=S")
0.939
>>> experimental_value("COCC(=O)Nc1c(C(=O)Nc2ccc(OC(F)(F)F)cc2)oc2ccccc12")
1.58
>>> experimental_value("O=[N+]([O-])c1ccc(C=CC=Nc2ccc(-c3nc4ccccc4s3)c(O)c2)cc1")
0.746
>>> experimental_value("CCOc1nc2cccc(C(=O)O)c2n1Cc1ccc(-c2ccccc2-c2nnn[nH]2)cc1")
0.918

====

# System: RAW-Dual (murine macrophage reporter line)
# TEST PROTOCOL: NF-kB reporter (SEAP) activity fold change vs agonist alone; higher = enhanced NF-kB activity
# EXPERIMENTAL SETUP: modulator concentration 10 µM; agonist: CpG ODN 1826 0.5 ug/mL
Reported values of NF-kB reporter for individual entries
READOUT: NF-kB reporter

>>> experimental_value("CCCCC(=O)N(Cc1ccc(-c2ccccc2-c2nn[nH]n2)cc1)[C@H](C(=O)O)C(C)C")
1.04
>>> experimental_value("O=C(c1ccc(Cl)cc1)N(c1ccccc1)C1C=CS(=O)(=O)C1 (stereo unspecified)")
0.99
>>> experimental_value("O=C(NCCC(CCO)c1ccccc1)c1cccc(Cl)c1 (stereo unspecified)")
1.11
>>> experimental_value("COC(=O)Nn1cnnc1")
1.03
>>> experimental_value("O=C(Cc1ccc([N+](=O)[O-])cc1)NN=Cc1cccnc1")
1.05
>>> experimental_value("Cc1c(Cl)cccc1S(=O)(=O)NCc1ccnc(N2CCCC2=O)c1")
1.01
>>> experimental_value("CN1CCN(c2ccc3nc(-c4c(N)c5c(F)cccc5[nH]c4=O)[nH]c3c2)CC1")
0.277
>>> experimental_value("CCOC(=O)C1=C(C)NC2=C(C(=O)CC(C)(C)C2)C1c1ccccc1Br (stereo unspecified)")
0.993
>>> experimental_value("Cc1cccc(C(=O)N2N=C(C3CCCCC3)CC2(O)C(F)(F)F)c1O (stereo unspecified)")
0.735
>>> experimental_value("Cc1ccc(S(=O)(=O)n2cnc3ccccc32)cc1")
1.11
>>> experimental_value("CC(C(=O)O)c1ccc2c(c1)Cc1cccnc1O2 (stereo unspecified)")
1.29
